- Assay Remarks: yeast display, Sf9 membrane polyspecificity reagent, FACS + sequencing; frameworks hold sequencing errors
Observable: polyreactivity (PSR sort gate)

Some sequences with known polyreactivity (PSR sort gate) results, for comparison:
Sequence Content	polyreactivity (PSR sort gate)
QVQLVESGGGLVQAGGSLRLSCAASGSTFDYYTMGWYRQAPGKERELVAAISRSGGSTRYADSVKGRFTISRDNAKNTVYLQMNSLKPEYTAVYYCAAKLWRYYHYDYWGQGTQVTVSS	low polyreactivity
QVQLVESGGGLVQAGGSLRLSCAASGSIFHPYAMGWYRQAPGKERELVAAISSSTGRTYYADSVKGRFTISRDNAKNTVYLQMNSLKPEDTAVYYCAARKKYSEFDYWGQGTQVTVSS	high polyreactivity
QVQLVESGGGLVQAGGSLRLSCAASGRIFDSYAMGWYRQAPGKERELVATISWDSASTYYADSVKGRFTISRDYAKNTVYLQMNSLKPEDTAVYYCAAGGSSSWAFNYWGQGTQVTVSS	low polyreactivity
QVQLVESGGGLVQAGGSLRLSCAASGFTLANYAMGWYRQAPGKERELVAAIDYSGGGTYYADSVKGRFTISRDNAKNTVYLQMNSLKPEDTAVYYCAARRWSYYSAKYDYWGQGTQVTVSS	low polyreactivity
QVQLVESGGGLVQAGGSLRLSCAASGITFAQYAMGWYRQAPGTERELVAGITRSGGSTHYADSVKGRFTISRDNAKNTVYLQMNSLKPEDTAVYYCNARYPYRGKRKPSDYWGQGTQVTVSS	high polyreactivity
QVQLVESGGGLVQAGGSLRLSCAASGSTFWGYALGWYRQAPGKERELVASIRRGASTTYADSVKGRFTISRDNAKNTVYLQMNSLKPEDSAVYYCAKPGYFRSHDYWGQGTQVTVSS	low polyreactivity
QVQLVESGGGLVQAGGSLRLSCAASGITFSPYTMGWYRQAPGKERELVAAINDGAITYYADSVKGRFTISRDNAKNTVYLQMNSLKPEDTAVFYCAAAAWGTDPFSTDYATYDYWGQVTQVTVSS	low polyreactivity
QVQLVESGGGLVQAGGSLRLSCAASGRIFGHYVMGWYRQAPGKERELVAGISSGGITYYADSVKGRFTISRDNAKNTVYLQMNSLKPEDTAVYYCAARVYYVRGSDTMDYWGQGTQVTVSS	low polyreactivity

So for QVQLVESGGGLVQAGGSLRLSCAASGSTFHWYAMGWYRQAPGKERELVAVITWSGGSTYYADSVKGRFTISRDNAKNTVYLQMNSLKPEDTAVYYCARDWYRYKLWLFRGQDGDYWGQGTQVTVSS , the logged polyreactivity (PSR sort gate) turned out to be low polyreactivity

Note to self: polyreactivity (PSR sort gate) recorded for QVQLVESGGGLLQAGGSLRLSCAASGRTFNKYAMGWYRKAPGIVRELVAAINYSGGRTYYADSVKGRFTISRDNAKNSVYLEMNSLKPEDTAVFYCAATPTFFVWQGYNYWGQGTQVTVSS was low polyreactivity

Value of polyreactivity (PSR sort gate) reported for the sequence QVQLVESGGGLVQAGGSLRLSCAASGSILVPNAMGWYRQAPRKERELVAGISANGGSTYYADSVKGRFTISRDNAKNTVYFQMNSLKPEDTAVYDCNARLYWDWYGDDYWGQGTQVTVSS is low polyreactivity
